system-under-test: N-terminally GST-tagged HCK (75-526) (Homo sapiens (Human), UniProt P08631)
Sequence (P08631 75-526): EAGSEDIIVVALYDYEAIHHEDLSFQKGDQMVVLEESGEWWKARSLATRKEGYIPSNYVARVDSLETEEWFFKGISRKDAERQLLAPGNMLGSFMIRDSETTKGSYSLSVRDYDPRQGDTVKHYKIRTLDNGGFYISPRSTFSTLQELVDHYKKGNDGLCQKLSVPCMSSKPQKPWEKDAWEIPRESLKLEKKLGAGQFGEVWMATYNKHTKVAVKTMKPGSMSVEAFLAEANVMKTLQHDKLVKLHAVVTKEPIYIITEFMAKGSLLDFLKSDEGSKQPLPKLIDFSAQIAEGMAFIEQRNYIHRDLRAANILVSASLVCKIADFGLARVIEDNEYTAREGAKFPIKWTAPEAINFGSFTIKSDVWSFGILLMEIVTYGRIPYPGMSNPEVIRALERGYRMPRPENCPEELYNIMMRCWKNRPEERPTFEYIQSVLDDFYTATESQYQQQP
test-name: HCK Kinase Assay (ProFluor Src-Family Kinase Assay)
Assay type: biochemical
condition-description: HCK inhibitory activity, 50 μM ATP; read-out: HCK Activity
# IC50 per entry

structure-smiles | IC50
Nc1ncnc2c1c(-c1ccc(Oc3ccccc3)cc1)cn2[C@H]1CC[C@@H](NC2CNC2)CC1 | 50 to 250 nM
CN1CCN([C@H]2CC[C@H](n3cc(-c4ccc(NC(=O)Nc5cc(C(C)(C)C)on5)cc4)c4c(N)ncnc43)CC2)CC1 | < 50 nM

Next molecule, please.
Requested read-out IC50, target or system N-terminally GST-tagged HCK (75-526) (Homo sapiens (Human), UniProt P08631), entry CN1CC2(C1)CN([C@H]1CC[C@H](n3cc(-c4ccc(Oc5ccccc5)cc4)c4c(N)ncnc43)CC1)C2
50 to 250 nM
